Target: Proteasome subunit beta (Trypanosoma cruzi) (UniProt O96673)
Sequence (O96673 as listed by the source): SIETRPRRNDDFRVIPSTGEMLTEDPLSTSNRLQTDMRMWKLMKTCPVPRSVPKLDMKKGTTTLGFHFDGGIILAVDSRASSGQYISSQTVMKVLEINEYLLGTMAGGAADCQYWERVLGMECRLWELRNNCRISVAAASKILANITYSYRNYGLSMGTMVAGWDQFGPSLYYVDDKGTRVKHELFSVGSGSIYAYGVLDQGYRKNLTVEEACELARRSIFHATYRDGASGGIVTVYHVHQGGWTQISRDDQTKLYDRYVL
Assay: Trypanosoma cruzi proteasome chymotrypsin-like activity (TcProtChymo) assay. Also: in the data most compounds retested in dose-response had high values.
Type: functional
Set-up: scale not given: direction of the effect not stated beside the values
Details: 9.37 µM
Percent Effect for assorted molecules
Write the numeric value and append its unit.

Task item: Report Percent Effect for Cc1ccc(OCC(=O)NCc2ccccc2F)nc1 please.
Reply: 8.13%

Task item: What does the record list as Percent Effect for CCc1noc(C2CCCCN2C(=O)c2ccoc2C)n1 (stereo unspecified) ?
Reply: 13.9%

Task item: Given the molecule CN(Cc1cn2c(n1)CN(C1CCOC1)CC2)Cc1ccco1 (stereo unspecified) , what is its reported Percent Effect?
Reply: 16.1%

Task item: Entry under review: CNC(=O)c1cc2c(nc1NCC1CC1)CCN(S(=O)(=O)C1CC1)CC2 . Reported Percent Effect?
Reply: 9.75%

Task item: Which value of Percent Effect has been reported for Cc1cccc(N2Cc3nc(=O)[nH]n3C2=O)c1 in the records?
Reply: 19.6%

Task item: # input molecule: CC(C)OCC(=O)N1CCCN(Cc2ccc(C#N)cc2)CC1 ; wanted: its Percent Effect
Reply: 10.2%

Task item: What does the data say about its Percent Effect? Entry: O=C(c1cnccn1)N1C[C@@H]2CC[C@H](C1)N(C(=O)Cc1ccsc1)C2
Reply: 9.32%

Task item: Bench note: what Percent Effect did O=C(CCN1CCCC1C1CCCCC1)N1CCc2sccc2C1 (stereo unspecified) show?
Reply: -0.18%

Task item: GET /values?readout=Percent Effect&item= COc1ccc(CC(=O)N2CCCC2Cn2cccn2)cc1F (stereo unspecified)
Reply: 2.12%

Task item: Item CN(Cc1cscn1)C1CCCN(Cc2noc(C3CC3)n2)C1 (stereo unspecified) has what recorded Percent Effect?
Reply: 12.9%

Task item: Which Percent Effect is listed for CC(NC(=O)CNCCn1cccn1)c1ccc2c(c1)OCCO2 (stereo unspecified) ?
Reply: 7.6%

Task item: Look up Percent Effect for this molecule: CC(NC(=O)N1CCC(n2cncn2)CC1)c1ccc(F)cc1F (stereo unspecified)
Reply: 8.6%

Task item: Consider the molecule COc1c(CNC2CCN(C(=O)C3CC3)CC2)c(C(C)C)nn1C and give its measured Percent Effect.
Reply: -0.0846%

Task item: Fill in the blank: the reported Percent Effect of Cc1oc(C)c(C(=O)NCc2cccc(NC(=O)CN(C)C)c2)c1C is ____.
Reply: 0.172%

---

Molecular target: Protein translocase subunit SecA (Escherichia coli (strain K12))
Assay: Assay to Identify E. coli SecA ATPase Inhibitors
Type: functional
Design: scale not given: direction of the effect not stated beside the values
Settings: 30 µM
Measured potencies and affinities stand elsewhere.
# reported Percent Effect; entries follow
Report as a plain number; the unit % is understood.

{"columns": ["COMPOUND", "Percent Effect (%)"],
 "data": [
  ["O=C(c1cnc(-c2cccs2)s1)N1CCCC(n2cccn2)C1 (stereo unspecified)", -4.52],
  ["CC(C)(O)CN1CCN(C(=O)c2sccc2C2CC2)CC1", -3.28],
  ["CC(C)c1nc(CN(C)C2CCN(CC(F)(F)F)C2)no1 (stereo unspecified)", -5.29]
]}

Task item: What value of Percent Effect has been reported for the following compound? COc1ccc(F)cc1C(C)NC(=O)Nc1nnc(C)s1 (stereo unspecified)
Reply: -1.41

Task item: Data request, read-out Percent Effect, for O=C(Cn1nc2c(cc1=O)CCCC2)N[C@@H](Cc1ccccc1)C(=O)O
Reply: 0.621

Task item: Item Cc1ccccc1C(=O)NCc1ccc(N2CCNC(=O)C2)cc1 has what recorded Percent Effect?
Reply: 1.43

---

Molecular target: Sialic acid-binding Ig-like lectin 9 (Homo sapiens) (UniProt Q9Y336)
Sequence (Q9Y336 whole entry): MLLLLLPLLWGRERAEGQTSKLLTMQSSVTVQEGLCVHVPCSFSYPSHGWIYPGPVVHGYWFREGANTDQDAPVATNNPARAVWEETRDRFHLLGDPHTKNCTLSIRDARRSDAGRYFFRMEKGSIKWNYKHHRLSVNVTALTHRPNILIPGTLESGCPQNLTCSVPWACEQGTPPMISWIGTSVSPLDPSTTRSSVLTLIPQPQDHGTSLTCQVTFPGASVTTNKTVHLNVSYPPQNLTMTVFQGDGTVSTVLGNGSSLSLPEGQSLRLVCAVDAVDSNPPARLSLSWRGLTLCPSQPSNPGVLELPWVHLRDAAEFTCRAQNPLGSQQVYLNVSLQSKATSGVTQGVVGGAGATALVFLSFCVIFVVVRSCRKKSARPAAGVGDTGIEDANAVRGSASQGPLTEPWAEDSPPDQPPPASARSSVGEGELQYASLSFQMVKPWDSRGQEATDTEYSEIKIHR
Experiment: Hs-Siglec9 ALPHAscreen SOP 20170721
Set-up: scale not given: direction of the effect not stated beside the values
Conditions: 10 µM
READOUT TYPE: Percent Effect (%)
Enter your answer as a number in %; do not include the unit.

{"columns": ["COMPOUND", "READOUT TYPE", "UNIT ANNOTATION", "NUMBER"],
 "data": [
  ["O=C(NCc1cccnc1-n1cccn1)C1CC(=O)N(CC2CC2)C1 (stereo not given)", "Percent Effect", "%", -3.81]
]}

Task item: State the recorded Percent Effect for this entry: CC(C)Sc1ncccc1C(=O)NCc1ccc(CS(C)(=O)=O)cc1
Reply: -3.32

Task item: What value of Percent Effect has been reported for the following compound? Fc1ccc(CN2CCC(c3n[nH]c4nccnc34)CC2)cc1F
Reply: -4.91

Task item: Given the compound CCCC1CCCN(Cc2csc(-c3cnn(C)c3)n2)CC1 (stereo not given) , what is its reported Percent Effect?
Reply: -3.96

Task item: Find the recorded Percent Effect belonging to CC(C)c1nc(C2CCCN2CC(=O)N2CCc3ccccc32)no1 (stereo not given) and report it.
Reply: 5.77

Task item: Would you kindly share the measured Percent Effect for Cc1ccc(NC2CCN(C(=O)c3ccsc3)CC2)nn1 ?
Reply: 1.46

---

Target: Arginase-2, mitochondrial (Homo sapiens)
Assay: in vitro enzyme assay to detect the production of urea directly proportional to the activity of Arginase II; also: in the data most compounds retested in dose-response had high values
Type: functional
Design: scale not given: direction of the effect not stated beside the values
Conditions: 33.3 µM
List of Percent Effect values.
// units = %; emit number, no label

Solved cases (5 shown):
{"columns": ["COMPOUND", "UNIT ANNOTATION", "Percent Effect"],
 "data": [
  ["O=C(NCCN1CCCCCC1=O)c1ccn(-c2ccc(F)cc2)n1", "%", 0],
  ["O=C(CSCC1CC1)N1CCCC(c2nccn2Cc2ccncc2)C1 (stereo not drawn)", "%", 2.65],
  ["CN1C(=O)C(c2cccnc2)CC12CCN(C(=O)c1cccn1C)CC2 (stereo not drawn)", "%", 4.48],
  ["COc1cc(CNC(=O)NCCCF)cc(Br)c1OC", "%", 0],
  ["CCOc1ccc(CNCCCn2ccnc2)cc1Br", "%", -6.51]
]}

Task item: Bench note: what Percent Effect did Cc1cc(C)cc(NS(=O)(=O)c2cc3c(c(C(=O)O)c2)OCCO3)c1 show?
Reply: -5.38

Task item: Recorded Percent Effect for CC(C)n1ccnc1CN1CCCN(C(=O)CC2C=CCC2)CC1 (stereo not drawn) , please?
Reply: -6.67

Task item: Using the record for O=C(c1ccc2c(c1)CCCC2)N1CCOCC1c1ncon1 (stereo not drawn) , report its Percent Effect.
Reply: -5.61

Task item: Tell me the measured Percent Effect of CCN(CC)c1ccc(C(=O)N(C)Cc2c(C)noc2C)cn1 , please.
Reply: 10.1

Task item: Any idea what its Percent Effect is? The compound is O=C(NCc1cccs1)[C@H]1CC[C@@H]2[C@@H](CCN2c2ncccn2)O1
Reply: -0.833

Task item: What Percent Effect value was documented for this compound, COCc1nc(N(C)C)ncc1C(=O)Nc1ccn(C)n1 ?
Reply: -7.22

---

Entries and their Percent Effect values follow.
Target: AMP-activated protein kinase, AMPK (Homo sapiens) (UniProt P54646+O43741+P54619+Q9UGJ0+Q9Y478+Q13131+Q9UGI9)
Assay: AMP-dependent Kinase enzyme assay. An in vitro enzyme assay that detects ADP turnover that is directly proportional to AMPK activity. This uses naive AMPK that is activated during the assay with MK-8722
Assay type: functional
Design: scale not given: direction of the effect not stated beside the values
Details: 30 µM
Write down the numeric answer in % and omit the unit.

# annotated cases, reported Percent Effect shown
{"columns": ["COMPOUND", "Percent Effect, %"],
 "data": [
  ["c1cncc(COCc2nnc3n2CCN(Cc2ccsc2)C3)c1", 2.4],
  ["CNS(=O)(=O)Cc1ccc(CNC(=O)c2ccc(C)[nH]c2=O)cc1", -2.88],
  ["CC(C)C(NC(=O)NCC1(CO)CC1)c1nnc2n1CCC2 (centres undefined)", 2.82],
  ["CC(C)c1nc(C2CCCN2CC(=O)N2CCc3ccccc32)no1 (centres undefined)", 5.96],
  ["O=C(CCn1ccc2cc(Br)ccc21)NCc1ccc(C(=O)O)cc1", 11.6],
  ["COc1ccc(CN2C[C@@H](N(C)Cc3ccco3)[C@H]3OCCC[C@H]32)cc1", 8.07],
  ["O=C(CO[C@@H]1CC[C@H]2[C@H]1OCCN2CC1CCOCC1)N1CCCC1", 2.42],
  ["CCOC(=O)CCCNC(=O)CN1CCN(c2ncccn2)CC1", -1.07],
  ["CN1CCN(CCCNC(=O)c2cc(Cl)c3c(c2)OCO3)CC1", -11.6],
  ["Cc1noc(CCCC(=O)NC(C)c2cn(-c3ccccc3)nn2)n1 (centres undefined)", 3.68]
]}

Note: attention shifts to another entry.
Task item: Quick one: Percent Effect of Cc1nn(C)c(C)c1CC(=O)N1CCC(N(C)c2cccnn2)CC1 ?
Reply: 0.809

---

Biological target: Ubiquitin-activating enzyme e1, putative (Leishmania donovani (strain BPK282A1)) (UniProt E9BSI1)
Sequence (E9BSI1 as listed by the source): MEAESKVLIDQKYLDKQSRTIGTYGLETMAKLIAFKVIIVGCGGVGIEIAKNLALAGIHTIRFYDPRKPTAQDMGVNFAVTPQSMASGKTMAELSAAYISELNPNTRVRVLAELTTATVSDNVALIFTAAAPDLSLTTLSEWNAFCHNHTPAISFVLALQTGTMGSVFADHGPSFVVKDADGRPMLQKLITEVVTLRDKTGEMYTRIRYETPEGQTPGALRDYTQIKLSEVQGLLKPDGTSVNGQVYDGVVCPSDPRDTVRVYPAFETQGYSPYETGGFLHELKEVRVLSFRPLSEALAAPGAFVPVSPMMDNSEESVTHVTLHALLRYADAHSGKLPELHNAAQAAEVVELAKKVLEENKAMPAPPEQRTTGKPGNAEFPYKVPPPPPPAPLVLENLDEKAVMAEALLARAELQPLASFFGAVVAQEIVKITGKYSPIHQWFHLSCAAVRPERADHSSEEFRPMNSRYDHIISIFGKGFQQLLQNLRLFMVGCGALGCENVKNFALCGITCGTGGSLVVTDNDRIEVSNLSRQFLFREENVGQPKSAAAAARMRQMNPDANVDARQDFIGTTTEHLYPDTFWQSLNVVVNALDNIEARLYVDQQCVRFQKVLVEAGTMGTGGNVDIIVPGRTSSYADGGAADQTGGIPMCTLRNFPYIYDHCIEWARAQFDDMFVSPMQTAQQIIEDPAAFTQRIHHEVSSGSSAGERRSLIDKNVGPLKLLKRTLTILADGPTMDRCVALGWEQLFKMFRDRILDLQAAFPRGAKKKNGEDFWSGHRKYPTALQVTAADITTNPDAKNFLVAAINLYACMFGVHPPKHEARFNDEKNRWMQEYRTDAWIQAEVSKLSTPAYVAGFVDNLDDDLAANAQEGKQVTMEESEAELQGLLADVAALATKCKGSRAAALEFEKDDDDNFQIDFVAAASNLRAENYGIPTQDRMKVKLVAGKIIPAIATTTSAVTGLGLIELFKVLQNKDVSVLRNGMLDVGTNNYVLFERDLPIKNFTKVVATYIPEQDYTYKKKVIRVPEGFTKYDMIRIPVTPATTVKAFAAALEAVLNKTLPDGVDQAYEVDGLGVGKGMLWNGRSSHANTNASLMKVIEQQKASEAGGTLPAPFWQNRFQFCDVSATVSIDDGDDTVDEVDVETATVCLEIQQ
Test: Leishmania donovani Ubiquitin Activating Enzyme (LdE1)
Format: functional
Design: scale not given: direction of the effect not stated beside the values
Details: 30 µM
Measured potencies and affinities stand elsewhere.
READOUT TYPE: Percent Effect
A bare number is not enough; add the unit after it.

Take a look at these entries with their results.
{"columns": ["COMPOUND", "READOUT TYPE", "RESULT"],
 "data": [
  ["CCn1c(CN2CCCN(C(=O)OC)CC2)nc2c(F)cccc21", "Percent Effect", "15.8%"],
  ["COCCOc1ccc(NC(=O)C2CC(=O)N(C)C2)cn1 (stereo not drawn)", "Percent Effect", "12.7%"],
  ["CN(C)CCNC(=O)c1cc(-c2cnc(N3CCCC3)nc2)cn1C", "Percent Effect", "5.33%"],
  ["O=C(NCCc1c[nH]cn1)c1ccc2c(c1)C(=O)N(C1CC1)C2=O", "Percent Effect", "1.33%"],
  ["OC(CN1CCOCC1)c1ccc(OC(F)(F)F)cc1 (stereo not drawn)", "Percent Effect", "2.7%"],
  ["Cn1cccc1CN1CCC2(CCCN(C(=O)Cc3cccnc3)C2)C1 (stereo not drawn)", "Percent Effect", "0%"]
]}

Task item: Can you look up the measured Percent Effect of COCc1ccc(CNC(=O)C2=NN(c3ccccc3)C(=O)CN2)cc1 for me?
Reply: 5.41%

Task item: Which Percent Effect is listed for O=C(c1cnn(-c2ccccc2F)c1)N1CCN(CCO)CC1 ?
Reply: 2.67%

Task item: Look up Percent Effect: CNS(=O)(=O)c1cccc(CNC(=O)c2c(C)nn(C)c2C)c1
Reply: 11.4%

Task item: Returns the measured Percent Effect for the input compound. Input: Cc1nc2cc(C3CCN(Cc4cccc(F)c4F)C3)nn2c(O)c1C (stereo not drawn)
Reply: 12.2%

Task item: Entry CN(C)CCCNC(=O)c1cc(Br)c2c(c1)OCCO2 has what Percent Effect?
Reply: 5.33%
